Test: Selectivity index, ratio of CC50 for African green monkey Vero cells to IC50 for chloroquine-resistant Plasmodium falciparum W2 infected in human erythrocytes
Format: toxicity, cell-based
Settings: read-out: Ratio CC50/IC50
Consider the following compounds; for each one, report its selectivity ratio.
Output: the number by itself.

# input Need selectivity ratio, item CC(C)(O)c1cn(CCNC2=CC(=O)c3ccccc3C2=O)nn1
# output 28.5

# input Which measured selectivity ratio value corresponds to O=C1C=C(NCCn2cc(-c3ccccc3)nn2)C(=O)c2ccccc21 ?
# output 143

# input I'd like to know its selectivity ratio. The compound in question is Cc1ccc(-c2cn(CCNC3=CC(=O)c4ccccc4C3=O)nn2)cc1
# output 13.7

# input Name the recorded selectivity ratio for COc1ccc(-c2cn(CCNC3=CC(=O)c4ccccc4C3=O)nn2)cc1 .
# output 95.8

# input Param item = O=C1C=C(NCCn2cc(C3(O)CCCCC3)nn2)C(=O)c2ccccc21 ; retrieve measured selectivity ratio.
# output 495
